Where these numbers come from: PubChem BioAssay (NCI)

test system: HCC-2998 colon; assay: NCI tumour cell line growth inhibition, 48 h
Catalogue of compounds with associated TGI

COMPOUND	TGI
O=C(N/N=C1/C(=O)c2c3ccccc3cc3cccc1c23)c1cccc(Cl)c1	> 100 µM
O=C(/C=C(\Nc1ccccc1O)c1ccccc1)C(=O)NC12CC3CC(CC(C3)C1)C2	> 10 µM
COc1ccc(N2C(=O)/C(=C\c3cccc(Oc4ccccc4)c3)S(=O)(=O)C2c2ccccc2)cc1 (centres undefined)	> 100 µM
Cc1nc(/N=C(\N)NC(=O)Nc2ccccc2Cl)sc1C	> 100 µM
C/C(=N/NC(=O)C(N)=O)C(CC(C(=O)Nc1ccccc1C)/C(C)=N\NC(=O)C(N)=O)C(=O)Nc1ccccc1C (centres undefined)	> 100 µM
CC(C)C(=O)/C=C/c1ccc(Cl)cc1	31.9 µM
C#CCNC(=O)CC[C@]1(C)[C@H]2CC[C@@H]3[C@@H]([C@@](C)(O)CCC=C(C)C)CC[C@@]3(C)[C@]2(C)CC[C@H]1C(=C)C	> 100 µM
CN1CCN(C(=S)N(C(=O)c2ccco2)c2ccccc2)CC1	> 100 µM
CO/N=C1/c2sccc2[C@H](NC(=O)C(F)(F)F)[C@@H]1O	> 100 µM

----------
test system: TK-10 renal; assay: NCI tumour cell line growth inhibition, 48 h
# TGI listing for each entry below
MEASURE: TGI (µM)

MOLECULE	MEASURE	SIGN QUALIFIER	ENDPOINT VALUE
CCOc1ccc(N=Nc2ccc3oc(=O)c(C(=O)Nc4ccc(OC)cc4)cc3c2)cc1	TGI	>	100
CCCN(CCCCN1C(=O)c2ccccc2C1=O)CC1COc2ccccc2O1 (configuration not stated)	TGI	>	100
Cc1cc2c(cc1C)[n+](=O)c(C(=O)N1CCN(c3ccc([N+](=O)[O-])cc3)CC1)c(C)n2[O-]	TGI	=	40.4
Cc1ccc(/C(=C/C=C(C#N)C#N)Sc2cc(Cl)ccc2Cl)cc1	TGI	=	18.7
COC(=NCCC1=CCCCC1)OC	TGI	>	100
CC1=C[C@]2(CC(C)C3C(CC4(C)C5CCC6C(C)(C)C(=O)CC[C@@]67C[C@@]57CC[C@]34C)O2)OC1=O (some centres not stated)	TGI	=	79
Cc1c[nH]c(C(=O)O)c1-c1ccc2c(-c3ccccc3)nc3ccccc3n12	TGI	>	100
CC1(C)C(=S)C(C)(C)C1=S	TGI	>	100
O=C1NC(=O)C(C(c2ccc(Cl)cc2)C2C(=O)NC(=O)NC2=O)C(=O)N1	TGI	>	100
Cc1c(CCCl)c(N=[N+]=[N-])n2c(nc3ccccc32)c1C#N	TGI	=	3.02
CC(C)(C)OC(=O)NC(Cc1cnc[nH]1)C(=O)N1CCCC1C(N)=O (configuration not stated)	TGI	>	100
COc1cc2cc[n+]3c4cc(OC)c(OC)cc4c(C)cc3c2cc1OC	TGI	>	100
CSc1ccc2c(cc1=O)C(NC(=O)c1ccc(OC(C)=O)cc1)CCc1cc(O)c(O)c(O)c1-2 (configuration not stated)	TGI	>	100
CCOC(=O)C1=C(C)NC2SC(=O)/C(=C\c3ccccc3)N2C1c1ccccc1 (configuration not stated)	TGI	>	100
O=C1c2ccccc2-c2c1c1ccccc1c(=O)n2CCCN1CCN(CCCn2c3c(c4ccccc4c2=O)C(=O)c2ccccc2-3)CC1	TGI	>	70.8
CNc1ccc(-c2cc(=O)oc3ccc(Cl)cc23)cc1	TGI	>	100
COc1ccc(-c2nn(-c3cccc(NC(=O)Nc4cc(C(F)(F)F)cc(C(F)(F)F)c4)c3)cc2-c2ccncc2)cc1Cl	TGI	=	10.9
CCN(CC)C(=S)SC1CCOP(=O)(N(CCCl)CCCl)N1C (configuration not stated)	TGI	>	100
O=C(Nc1ccccc1Br)c1cccc([N+](=O)[O-])c1O	TGI	=	12.6
CC[O-].Cc1ccc2cccc([O-])c2n1.Cc1ccc2cccc([O-])c2n1.Cc1ccc2cccc([O-])c2n1.[Ti+4]	TGI	>	83.9
CC(=O)O[C@H]1CC[C@@]2(C)C(=CC[C@@H]3[C@@H]2CC[C@]2(C)C(=N/O)/C(=C/c4ccc([N+](=O)[O-])cc4)C[C@@H]32)C1	TGI	=	55.3
COC(=O)[C@@]1(C)CC[C@]2(C)CC[C@]3(C)C4=CC=C5C(=CC(=O)C(O)=C5C)[C@]4(C)CC[C@@]3(C)[C@@H]2C1	TGI	=	0.449
CCOc1ccc(/C=C/[N+](=O)[O-])cc1	TGI	=	24.7
COc1ccc2c(c1)nc1n2C(c2c(F)cccc2Cl)SC1 (configuration not stated)	TGI	>	76.8
CCCC(=O)OC[n+]1cccc(-c2c(COC(=O)NC(C)C)c(COC(=O)NC(C)C)c3n2CCC3)c1	TGI	>	100
c1ccc2c3c([nH]c2c1)C1c2[nH]c4ccccc4c2CCN1CC3	TGI	=	23.2
CN(C)CCN=Cc1c2ccccc2c(=O)n2c1oc1ccccc12	TGI	=	14
CC(=O)OC[C@]12CC[C@@H]([C@@H](C)C(N)=O)[C@@H]1[C@H]1CC[C@@H]3[C@@]4(C)CC[C@H](OC(C)=O)C(C)(C)[C@@H]4CC[C@@]3(C)[C@]1(C)CC2	TGI	=	39.8
NCC(NC(=O)OCc1ccccc1)C(=O)O (configuration not stated)	TGI	>	50
COc1ccc(/C=C/c2cc(N3CCOCC3)c3cc(F)c(F)cc3n2)cc1OC	TGI	=	10.2
CN1c2ccccc2S(=O)(=O)n2c(COc3ccc(Cl)cc3)nnc21	TGI	>	100
COc1ccc(/C=N/NC(=O)NCCCN(C)C)cc1	TGI	>	100
CCCCN(CCCC)CCCN=c1nc2c(c(N)n1-c1ccccc1)c(=S)n(-c1ccccc1)c(=S)n2-c1ccccc1	TGI	=	2.69
O=C(CCCc1ccccn1)c1ccccc1	TGI	>	100
COC(=O)Nc1nc2cc3c(cc2s1)OCCO3	TGI	>	50
Nc1ccccc1NC(=O)c1ccc(CN2CCC/C(=C\c3cccc(Cl)c3)C2=O)cc1	TGI	=	5.88
C[C@H]1CC[C@@H]2[C@@H](C)[C@H]3[C@H](C[C@H]4[C@@H]5CC=C6C[C@@H](O)CC[C@]6(C)[C@H]5C[C@H](O)[C@]34C)N2C1	TGI	>	100

----------
tested on: M14 melanoma; test: NCI tumour cell line growth inhibition, 48 h

MOLECULE	VALUE UNIT	SIGN QUALIFIER	TGI
N#CC(C#N)=CSc1ccccc1	µM	=	66.8
O=C1CN2C(Cl)(Cl)C2(c2ccccc2)c2cc(Cl)ccc2N1CC(F)(F)F (stereo unspecified)	µM	=	77.5
CC(=O)Nc1cc2c(cc1O)CC[C@@H]1[C@@H]2CC[C@]2(C)[C@@H](O)CC[C@@H]12	µM	>	100
CN(C)CC(CO)(CN(C)C)CN(C)C	µM	>	100
CC1(C)CC2C=C(C=O)C3(C=O)CC3(C)C2C1 (stereo unspecified)	µM	=	5.24
O=C(O)c1cc(=O)[nH]c(=S)[nH]1	µM	>	100

----------
test system: EKVX NSCLC; experiment: NCI tumour cell line growth inhibition, 48 h
The entries below come with measured TGI values attached.

MOLECULE	TGI
C[C@H]1CC(=O)C2=CCCC3(SCCCS3)[C@@H]2[C@H]1CO	> 100 µM
NC(=S)N1N=C2c3ccccc3CC[C@H]2[C@@H]1c1cccs1	> 100 µM
CCC[CH2][Sn]([CH2]CCC)([O]C(=O)c1nccnc1N)[O]C(=O)c1nccnc1N	2.18 µM
COc1cccc(C2NC(=S)NC(C)=C2C(=O)Nc2ccc(F)c(Cl)c2)c1 (stereo not given)	> 50 µM
CN(c1ccccc1)C1C(=O)N(c2ccccc2)C1/C=C/c1ccccc1 (stereo not given)	> 100 µM
CSc1ccc2c(cc1=O)C(NC(=O)c1ccc(OC(C)=O)cc1)CCc1cc(O)c(O)c(O)c1-2 (stereo not given)	44 µM
CCCCNC(=O)Nc1c(C(N)=O)c2n(c1C(=O)OCC)CCCCC2	> 100 µM
CCOC(=O)C1=C(C)NC(=O)NC1c1coc2cc(C)cc(C)c2c1=O (stereo not given)	> 100 µM
CCOc1ccc2c(ccc(/C=C\c3cc(C)c4cccnc4c3O)[n+]2C)c1	15.2 µM
CC12CC[C@H](O)C(C)(C)[C@H]1CC[C@](C)(O)C2COc1ccc2ccc(=O)oc2c1 (stereo not given in full)	> 100 µM

----------
test system: SR leukemia; experiment: NCI tumour cell line growth inhibition, 48 h; in the data active means GI50 below about 0.43 µM; inactive means the rest
Labels: active, inactive

COMPOUND	ASSIGNED CATEGORY
CC[CH2][Sn]([Cl])([Cl])[CH2]CC	inactive
O=C1c2ccccc2-c2c1c1ccccc1c(=O)n2CCCN1CCN(CCCn2c3c(c4ccccc4c2=O)C(=O)c2ccccc2-3)CC1	active
CC(=O)OC[C@]12CC[C@@H]([C@@H](C)C(N)=O)[C@@H]1[C@H]1CC[C@@H]3[C@@]4(C)CC[C@H](OC(C)=O)C(C)(C)[C@@H]4CC[C@@]3(C)[C@]1(C)CC2	inactive
C=C1C(=O)O[C@@H]2C[C@@H]1CC[C@@]1(C)O[C@@H]1CC[C@@]1(C)O[C@@H]1CC[C@@]2(C)O	inactive
CC(=O)OCC1OC(OC2=C(CC=C(Cl)Cl)C(=O)c3ccccc3C2=O)C(OC(C)=O)C(OC(C)=O)C1OC(C)=O (stereo not drawn)	inactive
O=C(c1cccs1)c1c(C(F)(F)F)n([O-])c2ccc(F)cc2[n+]1=O	active
COC(=O)[C@H](CC(C)C)NC(=O)NC(=O)NC(=O)CI	inactive
CCC[CH2][Sn]([CH2]CCC)([O]C(=O)c1nccnc1N)[O]C(=O)c1nccnc1N	active
COc1ccc(Cc2cnc(NC(=O)c3sc4ccccc4c3Cl)s2)cc1	active
CN(C)CCCNc1nccc(-c2c(-c3ccc(F)cc3)nn3cc(C(F)(F)F)ccc23)n1	inactive
N#Cc1c(NC(=O)CN2CCOCC2)sc2c1CCCC2	inactive
COC(=O)[C@@]1(C)CC[C@]2(C)CC[C@]3(C)C4=CC=C5C(=CC(=O)C(O)=C5C)[C@]4(C)CC[C@@]3(C)[C@@H]2C1	active
CCOC(=O)c1cc(C(=O)c2cc(OC)cc(OC)c2)n2ncc3ccccc3c12	inactive
COc1cccc(C2NC(=S)NC(C)=C2C(=O)Nc2ccc(F)c(Cl)c2)c1 (stereo not drawn)	inactive
COc1ccc(/C=C/c2cc(N3CCOCC3)c3cc(F)c(F)cc3n2)cc1OC	inactive
CNc1ccc(-c2cc(=O)oc3ccc(Cl)cc23)cc1	active
O=C1C(Cl)=C(Nc2cccc(O)c2)C(=O)N1c1ccc(Cl)c(Cl)c1	inactive
COc1ccc(/C=C\c2cc(OC)c(OC)c(OC)c2)cc1OC(=O)c1cccc(Cn2cc(CCOC(=O)c3cccc(Cn4nnc5c4C(=O)c4ccccc4C5=O)c3)nn2)c1	active
